Taken from the RepoRT retention time repository.

# Procedure text: Agilent ZORBAX 300 SB-C18, 150 × 1 mm, 3.5 µm; A: water + 0.01% heptafluorobutyric acid; B: acetonitrile + 0.01% heptafluorobutyric acid; gradient (min/%B) 0/0 100/90
# Experimental context: stereoisomer not certain
Endpoint: LC retention time (min)

P: NC(=O)C1CCCOC1 (centres undefined)
Q: CC(C)(C)C1=CC(=O)CN(C(C)(C)C)C1
R: c1ccc(Oc2nnc(-c3ccccc3)c3ccccc23)cc1
Using the recorded LC retention time, list the entries above from smallest to largest. List the labels according to the requested ordering.
P, Q, R
(P: 5.49 min, Q: 8.19 min, R: 15.8 min)

----------
# Procedure text: Agilent ZORBAX 300 SB-C18, 150 × 1 mm, 3.5 µm; A: water + 0.01% heptafluorobutyric acid; B: acetonitrile + 0.01% heptafluorobutyric acid; gradient (min/%B) 0/0 100/90
# Experimental context: stereoisomer not certain
Endpoint: LC retention time (min)

Solved cases below.
- Compound: "Cc1cc(=O)[nH]c(C(C)C)n1"
  Endpoint: "LC retention time"
  Observed: 6.9
- Compound: "Cc1cccc(-c2ccnc(=S)[nH]2)c1"
  Endpoint: "LC retention time"
  Observed: 9.59
- Compound: "Cc1nn(-c2ccc(C(=O)N3CCN(C)CC3)cc2)c(=O)c2ccccc12"
  Endpoint: "LC retention time"
  Observed: 8.65
- Compound: "CNC(C)(C)Cc1ccccc1"
  Endpoint: "LC retention time"
  Observed: 8.99
- Compound: "O=C1c2ccccc2-c2nc3ccccc3nc21"
  Endpoint: "LC retention time"
  Observed: 13

P: Nc1ncnc(N2CCCc3ccccc32)n1
Q: c1ccc(-c2ccnc(-c3cc(-c4ccccc4)ccn3)c2)cc1
Could you point out whether the larger LC retention time belongs to P or to Q ? To answer, give the label that identifies your chosen option.
Q
(Q: 14.9 min, P: 9.57 min)
